- tgt: HiBit-BRG1 fusion protein (Homo sapiens)
- Construct: expressed in transfected cells
- Sequence (P51532 whole entry, the tested form may be a part): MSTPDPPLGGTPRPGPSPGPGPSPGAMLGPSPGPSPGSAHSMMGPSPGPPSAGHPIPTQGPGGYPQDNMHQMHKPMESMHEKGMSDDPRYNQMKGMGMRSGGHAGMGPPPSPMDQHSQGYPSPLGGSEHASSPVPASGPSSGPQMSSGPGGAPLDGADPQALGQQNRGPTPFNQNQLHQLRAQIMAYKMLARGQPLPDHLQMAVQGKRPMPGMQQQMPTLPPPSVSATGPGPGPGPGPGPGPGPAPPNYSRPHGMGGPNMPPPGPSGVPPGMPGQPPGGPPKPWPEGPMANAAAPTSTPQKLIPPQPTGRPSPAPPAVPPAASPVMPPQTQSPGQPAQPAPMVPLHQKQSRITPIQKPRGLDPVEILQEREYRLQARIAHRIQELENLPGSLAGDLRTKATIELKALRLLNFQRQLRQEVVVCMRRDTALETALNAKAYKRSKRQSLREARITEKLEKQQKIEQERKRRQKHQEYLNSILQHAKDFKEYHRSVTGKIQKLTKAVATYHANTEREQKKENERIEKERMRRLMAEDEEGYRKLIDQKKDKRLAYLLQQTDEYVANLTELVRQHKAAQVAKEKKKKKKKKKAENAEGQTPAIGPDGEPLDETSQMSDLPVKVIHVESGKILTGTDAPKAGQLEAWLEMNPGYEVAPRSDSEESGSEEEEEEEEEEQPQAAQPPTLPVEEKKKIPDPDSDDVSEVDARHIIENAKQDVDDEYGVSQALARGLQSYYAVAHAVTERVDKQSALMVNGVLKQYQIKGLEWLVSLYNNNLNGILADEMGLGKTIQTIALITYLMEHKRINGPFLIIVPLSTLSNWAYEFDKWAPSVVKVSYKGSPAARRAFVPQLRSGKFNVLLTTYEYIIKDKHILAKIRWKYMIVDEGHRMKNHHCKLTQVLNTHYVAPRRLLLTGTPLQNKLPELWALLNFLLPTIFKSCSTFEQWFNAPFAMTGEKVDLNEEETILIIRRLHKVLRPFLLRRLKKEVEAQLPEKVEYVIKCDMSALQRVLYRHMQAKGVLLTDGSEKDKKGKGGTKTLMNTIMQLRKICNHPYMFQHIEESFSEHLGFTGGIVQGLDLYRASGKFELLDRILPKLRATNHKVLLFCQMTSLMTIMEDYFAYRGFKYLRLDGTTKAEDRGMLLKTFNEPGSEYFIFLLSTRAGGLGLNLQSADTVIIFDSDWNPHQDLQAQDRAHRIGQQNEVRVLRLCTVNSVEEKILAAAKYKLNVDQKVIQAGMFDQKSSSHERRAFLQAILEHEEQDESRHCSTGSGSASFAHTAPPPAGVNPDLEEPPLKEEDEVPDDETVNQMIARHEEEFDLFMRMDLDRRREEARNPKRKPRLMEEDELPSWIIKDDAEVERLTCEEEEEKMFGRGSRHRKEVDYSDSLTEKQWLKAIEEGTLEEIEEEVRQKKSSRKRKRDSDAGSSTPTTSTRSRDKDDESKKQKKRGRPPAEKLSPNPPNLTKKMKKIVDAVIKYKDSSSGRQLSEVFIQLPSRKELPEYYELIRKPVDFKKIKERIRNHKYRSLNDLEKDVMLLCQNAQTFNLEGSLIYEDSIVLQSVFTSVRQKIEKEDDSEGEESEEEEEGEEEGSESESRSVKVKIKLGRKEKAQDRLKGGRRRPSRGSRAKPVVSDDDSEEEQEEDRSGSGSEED
- experiment.notes: HiBiT-BRG1 cell-based degradation assay (Nano-Glo HiBiT Lytic Detection, 24 h)
- experimental.setup: HeLa cell line expressing HiBit-BRG1 and LgBit, read-out: BRG1 HiBit Degradation Maximum (%)
observable: Dmax

GET Dmax where system = HiBit-BRG1 fusion protein (Homo sapiens) and item = Cc1ncsc1-c1ccc([C@H](C)NC(=O)[C@@H]2C[C@@H](O)CN2C(=O)[C@@H](c2cc(N3CCC(c4cnc(N5CCC(c6c[nH]c7nnc(-c8ccccc8O)cc67)CC5)nc4)CC3)no2)C(C)C)cc1 (single isomer, unassigned) [Compound 92] > 75%

Report the value of Dmax obtained on HiBit-BRG1 fusion protein (Homo sapiens) for Cc1ncsc1-c1ccc([C@H](C)NC(=O)[C@@H]2C[C@@H](O)CN2C(=O)[C@@H](c2cc(OCCN(C)CCC(=O)N3CC(c4c[nH]c5nnc(-c6ccccc6O)cc45)C3)no2)C(C)C)cc1 (racemic) [Compound 221] . < 50%

Supply Dmax measured with HiBit-BRG1 fusion protein (Homo sapiens) for Cc1ncsc1-c1ccc(CNC(=O)[C@@H]2C[C@@H](O)CN2C(=O)[C@@H](NC(=O)CCN2CC(c3cc4cc(-c5ccccc5O)nnc4[nH]3)C2)C(C)(C)C)cc1 [Compound 16] . < 50%

Identify measured Dmax obtained with HiBit-BRG1 fusion protein (Homo sapiens) for Cc1ncsc1-c1ccc([C@H](C)NC(=O)[C@@H]2C[C@@H](O)CN2C(=O)[C@@H](c2onc(OCCN3CC(c4cc5cc(-c6ccccc6O)nnc5[nH]4)C3)c2Cl)C(C)C)cc1 (racemic) [Compound 266] . > 75%

Please report Dmax with HiBit-BRG1 fusion protein (Homo sapiens) for item Cc1ncsc1-c1ccc(CNC(=O)[C@@H]2C[C@@H](O)CN2C(=O)[C@@H](NC(=O)[C@H]2CC[C@H](c3cnc(N4CCC(c5cc6cc(-c7ccccc7O)nnc6[nH]5)CC4)nc3)CC2)C(C)(C)C)cc1 (racemic) [Compound 93] . > 75%

State measured Dmax of the compound Cc1ncsc1-c1ccc([C@H](C)NC(=O)[C@@H]2C[C@@H](O)CN2C(=O)[C@@H](c2cc(OCCN3CCC34CC(c3cc5cc(-c6ccccc6O)nnc5[nH]3)C4)no2)C(C)C)cc1 (mixture of isomers) [Compound 161] with HiBit-BRG1 fusion protein (Homo sapiens). > 75%

With HiBit-BRG1 fusion protein (Homo sapiens) as the test system, provide measured Dmax for this compound: Cc1ncsc1-c1ccc([C@H](C)NC(=O)[C@@H]2C[C@@H](O)CN2C(=O)[C@@H](c2cc(OCCN3CCCC(c4cc5cc(-c6ccccc6O)nnc5[nH]4)C3)no2)C(C)C)cc1 (mixture of isomers) [Compound 286] < 50%

Consider the compound Cc1ncsc1-c1ccc([C@H](C)NC(=O)[C@@H]2C[C@@H](O)CN2C(=O)[C@@H](c2cc(OCCN3C[C@@H]4[C@H](C3)[C@H]4c3[nH]c4nnc(-c5ccccc5O)cc4c3Cl)no2)C(C)C)cc1 (racemic) [Compound 131] tested on HiBit-BRG1 fusion protein (Homo sapiens); state its Dmax. > 50%

Enter Dmax (test system HiBit-BRG1 fusion protein (Homo sapiens)) for Cc1ncsc1-c1ccc([C@H](C)NC(=O)[C@@H]2C[C@@H](O)CN2C(=O)[C@@H](c2cc(OCCN3CCN(c4cc5cc(-c6ccccc6O)nnc5[nH]4)CC3)no2)C(C)C)cc1 (racemic) [Compound 235] > 75%
